- assay_target: T1, TNFR1 (Homo sapiens, UniProt P19438)
- T1 chain: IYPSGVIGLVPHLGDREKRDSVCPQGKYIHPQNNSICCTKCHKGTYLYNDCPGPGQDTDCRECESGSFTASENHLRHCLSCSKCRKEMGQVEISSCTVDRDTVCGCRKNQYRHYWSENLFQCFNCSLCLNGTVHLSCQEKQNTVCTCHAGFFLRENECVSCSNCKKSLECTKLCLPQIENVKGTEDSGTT
- test_details: yeast display SC50
Exercise: state measured apparent Kd (screen) for each of the binders provided.
All answers are understood in nM, so give the number only.

Request: Output measured apparent Kd (screen) for this item: A98E (designed binder) MTLQELLREEALRRAEAEAFRYALELLAEKFPEQKEYLLDLAEEIESQIRSLSGVDVEDVRKFLDKEWAWVKELLAEHPAELAEVEAARAARLAELREEVEAKVAA
Result: 0.869

Request: Output measured apparent Kd (screen) for this item: E18L (designed binder) MTLQELLREEALRRAEALAFRYALELLAEKFPEQKEYLLDLAEEIESQIRSLSGVDVEDVRKFLDKEWAWVKELLAEHPAELAEVEAARAARLAELRAEVEAKVAA
Result: 0.539

Request: Output measured apparent Kd (screen) for this item: A102R (designed binder) MTLQELLREEALRRAEAEAFRYALELLAEKFPEQKEYLLDLAEEIESQIRSLSGVDVEDVRKFLDKEWAWVKELLAEHPAELAEVEAARAARLAELRAEVERKVAA
Result: 0.446

Request: Output measured apparent Kd (screen) for this item: R92M (designed binder) MTLQELLREEALRRAEAEAFRYALELLAEKFPEQKEYLLDLAEEIESQIRSLSGVDVEDVRKFLDKEWAWVKELLAEHPAELAEVEAARAAMLAELRAEVEAKVAA
Result: 0.593

src = paper PMC12416549
